System: Streptococcus pyogenes
Assay: Antibacterial activity against inducible macrolide-lincosamide-streptogramin B-resistant Streptococcus pyogenes B0543 by agar microdilution method
Assay type: functional
Reported MIC by item:
Use µg/mL as the unit, but write only the number.

CC[C@H]1OC(=O)[C@H](C)C(=O)[C@H](C)[C@@H](O[C@@H]2O[C@H](C)C[C@H](N(C)C)[C@H]2O)[C@](C)(OCC(O)CNc2ccc3ncccc3c2)C[C@@H](C)NC(=O)[C@H](C)[C@@H](O)[C@]1(C)O (stereo not given in full)    2
CC[C@H]1OC(=O)[C@H](C)C(=O)[C@H](C)[C@@H](O[C@@H]2O[C@H](C)C[C@H](N(C)C)[C@H]2O)[C@](C)(OCC(O)CNCCCc2cccnc2)C[C@@H](C)NC(=O)[C@H](C)[C@@H](O)[C@]1(C)O (stereo not given in full)    0.5
CC[C@H]1OC(=O)[C@H](C)C(=O)[C@H](C)[C@@H](O[C@@H]2O[C@H](C)C[C@H](N(C)C)[C@H]2O)[C@](C)(OCC(O)CNc2cnc3ccccc3c2)C[C@@H](C)NC(=O)[C@H](C)[C@@H](O)[C@]1(C)O (stereo not given in full)    4

Please find the next molecule below.
Memo: CC[C@H]1OC(=O)[C@H](C)C(=O)[C@H](C)[C@@H](O[C@@H]2O[C@H](C)C[C@H](N(C)C)[C@H]2O)[C@](C)(OCC(O)CN2CCN(c3cccc(C(F)(F)F)c3)CC2)C[C@@H](C)NC(=O)[C@H](C)[C@@H](O)[C@]1(C)O (mixture of isomers) , reported MIC: 4
